The origin of these recorded values is PubChem BioAssay AID1918969.

- Test system: HCMV UL50-UL53 nuclear egress complex (human cytomegalovirus)
- experimental_details: inhibitors of HCMV UL50-UL53 interaction, biochemical, HTRF (AID 1918969)
- condition_label: normalized percent inhibition, concentration not given here
Screen size: about 190,000 compounds; about 280 (0.15%) were called active. Cut-off read from the data, not from the text of the source: active = inhibition above about 27% (passing the limit was not always enough); inactive = the rest. For the sample, actives were picked, then their nearest neighbours and some compounds at random.
Outcomes: active, inactive

| compound | answer_label |
| --- | --- |
| CCn1c(=O)c(=O)n(CC)c2cc(N3CCCCC3)c(NC(=O)c3ccc(Cl)cc3)cc21 | active |
| COc1ccc(C2CC(=O)C3=C(C2)NC(C)=C(C(=O)Nc2ccc(C)cc2)C3c2ccccc2)cc1OC (stereo not given) | inactive |
| CCn1c(=O)c(=O)n(CC)c2cc(N3CCCCC3)c(NC(=O)c3cccc(F)c3)cc21 | inactive |
| Cc1cc(C)c(C(N)=O)c(=O)[nH]1 | inactive |
| O=C(CC(c1ccccc1)c1ccccc1)NCc1ccco1 | inactive |
| Cc1ccc(CNC(=O)c2ccc(-n3nnc4cccnc43)cc2)cc1 | inactive |
| CCn1c(=O)c(=O)n(CC)c2cc(N3CCCCC3)c(NC(=O)c3ccccc3)cc21 | inactive |
| CN(C(=O)CSc1nc(-c2ccccc2)cc(-c2ccco2)c1C#N)c1ccccc1 | inactive |
| O=S(=O)(NCCc1ccccn1)c1cc(Cl)cc(Cl)c1O | inactive |
| NS(=O)(=O)c1ccc(NC(=O)c2cc(-c3ccc4c(c3)OCO4)nc3ccccc23)cc1 | inactive |
